# assay_system: androgen receptor (AR) (Homo sapiens, UniProt P10275, T878A)
# Sequence (P10275 1-920 T878A): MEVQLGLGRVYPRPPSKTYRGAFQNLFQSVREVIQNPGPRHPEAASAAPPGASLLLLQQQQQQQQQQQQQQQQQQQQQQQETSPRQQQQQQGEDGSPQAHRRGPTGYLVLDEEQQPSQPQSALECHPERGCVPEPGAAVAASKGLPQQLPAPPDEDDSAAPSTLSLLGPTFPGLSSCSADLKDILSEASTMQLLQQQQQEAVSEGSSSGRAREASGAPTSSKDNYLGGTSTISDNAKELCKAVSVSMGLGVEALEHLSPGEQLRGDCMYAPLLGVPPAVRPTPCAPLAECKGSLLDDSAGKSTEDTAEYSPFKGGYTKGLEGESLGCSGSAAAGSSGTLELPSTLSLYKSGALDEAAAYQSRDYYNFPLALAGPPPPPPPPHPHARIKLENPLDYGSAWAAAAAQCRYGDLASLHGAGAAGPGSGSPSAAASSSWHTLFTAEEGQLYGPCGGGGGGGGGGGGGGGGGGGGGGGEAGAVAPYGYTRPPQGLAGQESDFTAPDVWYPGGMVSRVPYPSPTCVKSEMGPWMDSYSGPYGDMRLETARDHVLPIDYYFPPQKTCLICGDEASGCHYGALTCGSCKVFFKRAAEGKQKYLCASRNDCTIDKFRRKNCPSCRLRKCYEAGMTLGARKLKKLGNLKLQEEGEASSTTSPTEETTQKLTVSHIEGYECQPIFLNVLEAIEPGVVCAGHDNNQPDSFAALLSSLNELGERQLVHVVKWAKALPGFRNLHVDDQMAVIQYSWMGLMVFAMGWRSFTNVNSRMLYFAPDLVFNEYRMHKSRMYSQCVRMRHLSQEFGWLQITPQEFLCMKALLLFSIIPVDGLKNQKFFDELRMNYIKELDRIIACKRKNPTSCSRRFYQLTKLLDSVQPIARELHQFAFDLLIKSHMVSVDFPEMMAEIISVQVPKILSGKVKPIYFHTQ
# assay_explanation: Androgen-induced PSA (6.1 kb)-luciferase reporter assay in LNCaP cells (R1881 1 nM)
# Assay type: cell-based
# Design: endogenous in cells; host or cells: LNCaP
# study_conditions: 24 h, read-out: PSA-Luc IC50 Range
Form field: IC50 (one value per entry).

Query string: Give IC50 for the following compound: CS(=O)(=O)Nc1nccc(COCCc2cc(Cl)c(OCCCl)c(C#N)c2)n1 [Compound A5]
Result string: > 2 µM

Next:
Query string: Give IC50 for the following compound: CC(C)(c1ccc(-c2ccc3c(c2)OCCN3S(C)(=O)=O)cc1)c1cc(Cl)c(OCCCl)c(C#N)c1 [Compound A228]
Result string: > 2 µM

Query string: Give IC50 for the following compound: CC(C)(c1ccc(OCc2ccnc(NS(C)(=O)=O)n2)cc1)c1cc(Cl)c(N2CC3(CCC3)C2)c(C#N)c1 [Compound A267]
Result string: 0.5 to 2 µM

Query string: Give IC50 for the following compound: CS(=O)(=O)NC12CC(NCc3ccc4c(ccn4-c4cc(Cl)c(OCCCl)c(C#N)c4)c3)(C1)C2 [Compound A145]
Result string: 0.5 to 2 µM

Query string: Give IC50 for the following compound: CS(=O)(=O)Nc1ncc2c(n1)CCN(Cc1ccc3c(ccn3-c3cc(Cl)c(OCCCl)c(C#N)c3)c1)C2 [Compound A154]
Result string: > 2 µM

Query string: Give IC50 for the following compound: CC(C)(c1ccc(OCc2ccnc(NS(C)(=O)=O)n2)cc1)c1ccc(OCC(O)CCl)cc1 (stereo not shown) [Compound A150]
Result string: < 0.5 µM

Query string: Give IC50 for the following compound: CC(C)(c1ccc(-c2cnc3c(NS(C)(=O)=O)nccc3n2)cc1)c1cc(Cl)c(OCCCl)c(C#N)c1 [Compound A280]
Result string: 0.5 to 2 µM

Query string: Give IC50 for the following compound: CC(C)(c1ccc(OCc2ccnc(NS(C)(=O)=O)n2)cc1)c1cc(Cl)c(OCC(O)CCl)c(C#N)c1 (stereo not shown) [Compound A258]
Result string: > 2 µM

Query string: Give IC50 for the following compound: CS(=O)(=O)N[C@H]1CC[C@@H](COc2ccc3c(ccn3-c3cc(Cl)c(OCCCl)c(C#N)c3)c2)CC1 [Compound A208]
Result string: > 2 µM
